Target: T1, TIGIT (Homo sapiens (Human), UniProt Q495A1 22-244)
T1 sequence: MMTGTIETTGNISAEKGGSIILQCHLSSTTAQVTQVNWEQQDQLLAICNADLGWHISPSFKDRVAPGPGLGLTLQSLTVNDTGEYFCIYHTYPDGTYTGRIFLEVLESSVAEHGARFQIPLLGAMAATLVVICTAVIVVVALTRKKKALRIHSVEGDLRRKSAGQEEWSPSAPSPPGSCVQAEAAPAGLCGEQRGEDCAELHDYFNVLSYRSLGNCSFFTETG
Experiment: flow cytometry, Fc fusion at 100 nM, TIGIT-transfected cells
Doc: threshold 2000 MFI (exclusive). Items with MFI at 100 nM beneath it return true (1); others return false (0).

These recorded examples may help you get a feel for the data.
binder: variant CD155 IgV-Fc S42W (Fc fusion, not shown: a dimerising Fc or GST) WPPPGTGDVVVQAPTQVPGFLGDSVTLPCYLQVPNMEVTHVWQLTWARHGESGSMAVFHQTQGPSYSESKRLEFVAARLGAELRNASLRMFGLRVEDEGNYTCLFVTFPQGSRSVDIWLRVL
qualitative_label: false (0)

binder: variant CD155 IgV-Fc S52E (Fc fusion, not shown: a dimerising Fc or GST) WPPPGTGDVVVQAPTQVPGFLGDSVTLPCYLQVPNMEVTHVSQLTWARHGEEGSMAVFHQTQGPSYSESKRLEFVAARLGAELRNASLRMFGLRVEDEGNYTCLFVTFPQGSRSVDIWLRVL
qualitative_label: false (0)

binder: variant CD155 IgV-Fc T45Q/S52L/V57L/L104E (Fc fusion, not shown: a dimerising Fc or GST) WPPPGTGDVVVQAPTQVPGFLGDSVTLPCYLQVPNMEVTHVSQLQWARHGELGSMALFHQTQGPSYSESKRLEFVAARLGAELRNASLRMFGLRVEDEGNYTCEFVTFPQGSRSVDIWLRVL
qualitative_label: false (0)

Below 2000 MFI on MFI at 100 nM? Entry variant CD155 IgV-Fc S52L (Fc fusion, not shown: a dimerising Fc or GST) WPPPGTGDVVVQAPTQVPGFLGDSVTLPCYLQVPNMEVTHVSQLTWARHGELGSMAVFHQTQGPSYSESKRLEFVAARLGAELRNASLRMFGLRVEDEGNYTCLFVTFPQGSRSVDIWLRVL
false (0)

Given variant CD155 IgV-Fc S42A/S52Q/L104Q/G111R (Fc fusion, not shown: a dimerising Fc or GST) WPPPGTGDVVVQAPTQVPGFLGDSVTLPCYLQVPNMEVTHVAQLTWARHGEQGSMAVFHQTQGPSYSESKRLEFVAARLGAELRNASLRMFGLRVEDEGNYTCQFVTFPQRSRSVDIWLRVL , is recorded MFI at 100 nM strictly lower than 2000 MFI?
true (1)

Given variant CD155 IgV-Fc S42W/S52R/Q62Y/L104Q (Fc fusion, not shown: a dimerising Fc or GST) WPPPGTGDVVVQAPTQVPGFLGDSVTLPCYLQVPNMEVTHVWQLTWARHGERGSMAVFHQTYGPSYSESKRLEFVAARLGAELRNASLRMFGLRVEDEGNYTCQFVTFPQGSRSVDIWLRVL , is recorded MFI at 100 nM strictly lower than 2000 MFI?
true (1)

Given the entry variant CD155 IgV-Fc S52R/Q62F/L104Q/G111R (Fc fusion, not shown: a dimerising Fc or GST) WPPPGTGDVVVQAPTQVPGFLGDSVTLPCYLQVPNMEVTHVSQLTWARHGERGSMAVFHQTFGPSYSESKRLEFVAARLGAELRNASLRMFGLRVEDEGNYTCQFVTFPQRSRSVDIWLRVL , would its reported MFI at 100 nM be below 2000 MFI?
false (0)

# TODO verify MFI at 100 nM < 2000 MFI strictly for this binder: variant CD155 IgV-Fc S52M/L104Q (Fc fusion, not shown: a dimerising Fc or GST) WPPPGTGDVVVQAPTQVPGFLGDSVTLPCYLQVPNMEVTHVSQLTWARHGEMGSMAVFHQTQGPSYSESKRLEFVAARLGAELRNASLRMFGLRVEDEGNYTCQFVTFPQGSRSVDIWLRVL
false (0)

Could you please tell me whether MFI at 100 nM recorded for variant CD155 IgV-Fc S52M/Q62Y (Fc fusion, not shown: a dimerising Fc or GST) WPPPGTGDVVVQAPTQVPGFLGDSVTLPCYLQVPNMEVTHVSQLTWARHGEMGSMAVFHQTYGPSYSESKRLEFVAARLGAELRNASLRMFGLRVEDEGNYTCLFVTFPQGSRSVDIWLRVL is less than 2000 MFI?
true (1)

API: query returns whether the binder falls strictly under 2000 MFI in MFI at 100 nM. Query: variant CD155 IgV-Fc S52M (Fc fusion, not shown: a dimerising Fc or GST) WPPPGTGDVVVQAPTQVPGFLGDSVTLPCYLQVPNMEVTHVSQLTWARHGEMGSMAVFHQTQGPSYSESKRLEFVAARLGAELRNASLRMFGLRVEDEGNYTCLFVTFPQGSRSVDIWLRVL
true (1)

In the record for variant CD155 IgV-Fc Q62F (Fc fusion, not shown: a dimerising Fc or GST) WPPPGTGDVVVQAPTQVPGFLGDSVTLPCYLQVPNMEVTHVSQLTWARHGESGSMAVFHQTFGPSYSESKRLEFVAARLGAELRNASLRMFGLRVEDEGNYTCLFVTFPQGSRSVDIWLRVL , is MFI at 100 nM less than 2000 MFI?
false (0)

Answer whether the binder variant CD155 IgV-Fc S42N/S52Q/Q62F (Fc fusion, not shown: a dimerising Fc or GST) WPPPGTGDVVVQAPTQVPGFLGDSVTLPCYLQVPNMEVTHVNQLTWARHGEQGSMAVFHQTFGPSYSESKRLEFVAARLGAELRNASLRMFGLRVEDEGNYTCLFVTFPQGSRSVDIWLRVL has MFI at 100 nM strictly less than 2000 MFI
false (0)
